- assayed-target: Phosphatidylinositol 5-phosphate 4-kinase type-2 alpha (Homo sapiens)
- experimental-protocol: qHTS for Inhibitors of phosphatidylinositol 5-phosphate 4-kinase (PI5P4K); also: value at the top dose of about 77 µM; % is scaled to controls: 0 for no effect and ±100 for the full control effect
- condition-info: PI5P4Kalpha enzyme, ADP-Glo luminescence, 60 min; active compounds read low
Out of some 330,000 compounds screened, about 4,100 (1.2%) were called active. Roughly 2% stayed inconclusive and do not appear here. Shown is part of a subset that was picked to be rich in actives.

- smiles-str: "O=C1c2cccnc2C(=O)N1Cc1cccs1"
  max response / %: 0.461
- smiles-str: "C#CCN(C[C@@H]1[C@@H](OC(=O)NC2CC2)[C@@H](OC(=O)NC2CC2)Cn2c(=O)ccc(=O)n21)S(=O)(=O)c1ccc(C)cc1"
  max response / %: -1.14
- smiles-str: "CCOC(=O)C1=CC[C@@H](c2ccncc2)N(S(=O)(=O)c2ccc(C)cc2)C1"
  max response / %: -0.549
- smiles-str: "NC1=CC(=O)C(=O)c2cccnc21"
  max response / %: -50.3
- smiles-str: "COc1cc2c(=O)n(C)c3ccccc3c2cc1OC"
  max response / %: 1.08

###

- assayed-target: Phosphatidylinositol 5-phosphate 4-kinase type-2 alpha (Homo sapiens) (UniProt P48426)
- Sequence (P48426 whole entry, looked up): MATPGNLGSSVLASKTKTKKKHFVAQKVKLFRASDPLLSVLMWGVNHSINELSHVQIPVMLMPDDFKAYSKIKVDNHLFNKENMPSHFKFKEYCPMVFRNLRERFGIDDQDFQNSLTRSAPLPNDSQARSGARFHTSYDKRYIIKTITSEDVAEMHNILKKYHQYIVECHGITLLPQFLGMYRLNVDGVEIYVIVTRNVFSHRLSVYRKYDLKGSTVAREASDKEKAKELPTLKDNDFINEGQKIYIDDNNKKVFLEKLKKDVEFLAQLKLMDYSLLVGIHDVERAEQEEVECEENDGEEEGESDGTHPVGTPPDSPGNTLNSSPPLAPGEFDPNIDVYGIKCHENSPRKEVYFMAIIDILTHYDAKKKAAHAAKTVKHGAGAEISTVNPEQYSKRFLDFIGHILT
- experimental-protocol: qHTS for Inhibitors of phosphatidylinositol 5-phosphate 4-kinase (PI5P4K); also: value at the top dose of about 77 µM; % is scaled to controls: 0 for no effect and ±100 for the full control effect
- condition-info: PI5P4Kalpha enzyme, ADP-Glo luminescence, 60 min; active compounds read low
Out of some 330,000 compounds screened, about 4,100 (1.2%) were called active. Another 2% or so got no clear call; they are omitted. The full list was thinned out, with actives kept by preference.

- molecule: "O=C(COc1ccc(Br)cc1)OCC(=O)c1ccc[nH]1"
  max response, %: 1.45
- molecule: "CCOC(=O)/C(N=Nc1cc(C(=O)O)cc(C(=O)O)c1)=C(\\O)CCl"
  max response, %: -52.4
- molecule: "O=C(NCc1ccc(F)cc1)c1cc(C2CCCCN2C(=O)c2cccs2)on1 (stereo not given)"
  max response, %: -3.15
- molecule: "O=C(OCc1ccccc1)N1CCC2CC1c1ccc(-c3ccc4c(c3)OCO4)cc12 (stereo not given)"
  max response, %: 14.4
- molecule: "CC(Sc1ccc(S(=O)(=O)N2CCN(C)CC2)cn1)C(=O)NC1CCCC(C)C1C (stereo not given)"
  max response, %: 0.777
- molecule: "COc1ccc(-c2cc(C(=O)N(C)Cc3ccccc3)c3ccccc3n2)cc1"
  max response, %: 15.4
- molecule: "O=C(Nc1ccc(N2CCOCC2)cc1)c1cccc2c(-c3ccc(F)c(F)c3)coc12"
  max response, %: 5.02
- molecule: "COc1ccc(-c2cc(C(=O)Nc3ccccc3O)c3ccccc3n2)cc1"
  max response, %: -106
- molecule: "Clc1ccccc1Nc1nc(NCc2cccs2)nc2ccsc12"
  max response, %: -4.54
- molecule: "OC(c1ccc(F)cc1)c1ncc(-c2cccc(C(F)(F)F)c2)[nH]1 (stereo not given)"
  max response, %: 16.6

###

- assayed-target: Phosphatidylinositol 5-phosphate 4-kinase type-2 alpha (Homo sapiens)
- experimental-protocol: qHTS for Inhibitors of phosphatidylinositol 5-phosphate 4-kinase (PI5P4K); also: value at the top dose of about 77 µM; % is scaled to controls: 0 for no effect and ±100 for the full control effect
- condition-info: PI5P4Kalpha enzyme, ADP-Glo luminescence, 60 min
The campaign covered roughly 330,000 compounds. About 4,100 (1.2%) were called active. Another 2% or so got no clear call; they are omitted. The calls were made as follows: active = max response of -50% or lower; inconclusive = between -30% and -50%; inactive = -30% or higher. Only a selection was taken, and actives are over-represented in it overall.
Outcome codes: active, inactive

- compound: "CCCc1[nH]nc2c1C(c1ccc(OC)c(Cn3nc(C)c(Br)c3C)c1)C(C#N)=C(N)O2 (configuration not stated)"
  class-name: "inactive"
- compound: "COC(=O)C1=C(C)N(C)C(=O)NC1c1ccc([N+](=O)[O-])o1 (configuration not stated)"
  class-name: "inactive"
- compound: "Cc1ccc2nc(-c3ccco3)c(Cc3cccc(Cl)c3)n2c1"
  class-name: "inactive"
- compound: "O=C(Nc1ccc(S(=O)(=O)N2CCOCC2)cc1)C1CCN(S(=O)(=O)c2ccc(Cl)cc2)CC1"
  class-name: "inactive"
- compound: "CC(CNC(=O)Cn1cnc2c(OCc3ccccc3)ncnc21)c1ccccc1 (configuration not stated)"
  class-name: "inactive"
- compound: "CCN(CC)C(=O)CSC(Nc1cccc(F)c1)=C(C#N)C#N"
  class-name: "active"
- compound: "Cc1ccc(Cn2c(C)nc3c(c2=O)c2nc4ccccc4nc2n3Cc2ccco2)cc1"
  class-name: "active"
- compound: "NC(Cc1ccc(F)cc1)c1csc(Nc2nncc3ccccc23)n1 (configuration not stated)"
  class-name: "inactive"
- compound: "COc1cc(OC)c(C(=O)NNC(=O)c2ccc(NS(=O)(=O)c3cccs3)cc2)cc1OC"
  class-name: "inactive"
- compound: "C/C(=N\\NC(=O)c1ccc2ccccc2c1)c1cccnc1"
  class-name: "inactive"
- compound: "COCCCNC(=O)c1ccc(-c2c(C)noc2C)c2ccoc12"
  class-name: "inactive"
- compound: "O=c1c2ccccc2oc2nc(C3CCCCC3)n(Cc3ccco3)c(=O)c12"
  class-name: "inactive"
- compound: "COc1ccc(OC)c(C(O)c2ncc(-c3cccc(C(F)(F)F)c3)[nH]2)c1 (configuration not stated)"
  class-name: "inactive"
- compound: "CC(=O)OCC(C)n1c(=O)c2ccccc2n1C(C)=O (configuration not stated)"
  class-name: "inactive"
- compound: "O=C(Cn1cnc2c(OCc3ccccc3)ncnc21)NCCCn1ccnc1"
  class-name: "inactive"
- compound: "CCCCCCCCN1C(=O)[C@H](CC(=O)NCC23CC4CC(CC(C4)C2)C3)C[C@@]2(C(=O)OC)CCCCC=C12"
  class-name: "inactive"
- compound: "CCCS(=O)(=O)NC(=O)C1(C)CCCN(C(=O)c2cccs2)C1 (configuration not stated)"
  class-name: "inactive"
- compound: "CC(C)Cn1c(SCC(=O)Nc2ccc(Cl)cc2F)nc(O)cc1=O"
  class-name: "inactive"
- compound: "CCCc1[nH]nc2c1C(C1CC=CCC1)C(C#N)=C(N)O2 (configuration not stated)"
  class-name: "active"
- compound: "O=[N+]([O-])c1ccc(N2CCSCC2)cc1O"
  class-name: "inactive"
- compound: "Cc1ccc(Cc2c(-c3ccccc3)nc3ccc(Cl)cn23)cc1"
  class-name: "inactive"
- compound: "Cc1ccc(Cc2c(-c3ccco3)nc3ccc(Cl)cn23)cc1"
  class-name: "active"
